Target: GNAQ/GNA11 (Homo sapiens) (UniProt P50148+P29992)
Experiment: Inhibition of Galphaq/11 (unknown origin) expressed in CHO-M1 cells at 10 uM preincubated for 1 hr followed by carbachol stimulation for 30 mins and measured after 1 hr by IP1 accumulation based HTRF assay relative to control
Format: cell-based
Conditions: time 150.0 min
Would you please tag the item Y when its inhibition is 20% or above, and N when it is below?

Solved cases below.
| Structure string | Class label |
| --- | --- |
| c1cc2c(cc1-c1cn3c(n1)[C@H](CC1CCCCC1)N(CCN1CCCCC1)CC3)CCCC2 | N |
| CC[C@H](C)[C@H](N)C(=O)N1CCn2cc(-c3ccc4ccccc4c3)nc2[C@@H]1CC1CCCCC1 | N |
| CC[C@H](C)[C@H](N)C(=O)N1CCn2cc(-c3ccccc3Cl)nc2[C@@H]1CC1CCCCC1 | Y |
| CC[C@H](C)[C@H](N)C(=O)N1CCn2cc(-c3ccc4c(c3)CCCC4)nc2[C@H]1CC(C)C | N |
| CC[C@H](C)[C@H](N)C(=O)N1CCn2cc(-c3cccc(N)c3)nc2[C@@H]1CC1CCCCC1 | N |

Can CC[C@H](C)[C@H](N)C(=O)N1CCn2cc(-c3ccc4c(c3)CCCC4)nc2[C@@H]1CC1CCCCC1 be said to have inhibition at or above 20%?
N
